Assay: growth suppression of PTEN-deleted HCT116, pilot screen, cell-based, HCT116 clonal line, CellTiter-Glo (AID 824);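 further: 0% = 20 µM Hyamine control and 100% = vehicle cell control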
Details: 60 h, at 10 µM, hits give low values
Results filed as inconclusive are left out.
I'd be grateful if you could share measured viability for these entries.
Answers are plain numbers, in %.

Here's what some known entries look like.
Molecule	viability, %
CC(c1ccccc1)N1CC(C(=O)N2CCN(c3ccccc3)CC2)CC1=O (configuration not stated)	101
COc1cccc(C2C(C(=O)c3ccco3)=C(O)C(=O)N2CCCN2CCOCC2)c1OC (configuration not stated)	93.5
O=C(NCc1ccccc1)c1cc(S(=O)(=O)N2CCOCC2)ccc1F	93
COc1cc(NC(=O)c2cc3ccccc3o2)c(OC)cc1Cl	73.6
Cn1c(NC(=O)Cc2ccc(F)cc2)cc(=O)n(C)c1=O	95.4

Items follow; give viability for each.
1. CN(Cc1ccccc1)C(=O)COC(=O)c1ccc2c(c1)OCO2
2. O=C1c2cccnc2C(=O)N1Cc1cccs1

Response line:
104
102

----------
I'd be grateful if you could share measured growth inhibition for these entries.
Assay: OD615 S. cerevisiae growth inhibition, permissive medium, pilot counter-assay, permissive growth control for S. cerevisiae lifespan shortening project (AID 705)
Conditions: OD615, 24 h, at 10 µM, hits give high values
Give bare numbers, in %.

Items follow; give growth inhibition for each.
1. CCCCOC(=O)c1ccc(NS(=O)(=O)c2cc(-c3nnnn3CC)ccc2OC)cc1
2. Cc1ccc2oc3c(c(=O)c2c1)C(c1cccc(Cl)c1)N(CCCN1CCOCC1)C3=O (stereo unspecified)
3. COc1ccc(C2C(C(=O)Nc3cc(C)on3)c3ccccc3C(=O)N2C)cc1OC (stereo unspecified)
4. Cc1ccc2oc3c(c(=O)c2c1)C(c1cccc(O)c1)N(c1ccccn1)C3=O (stereo unspecified)
5. Cc1cccc(NC(=O)C2C(C(=O)O)C3C=CC2C32CC2)c1C (stereo unspecified)
6. CC1CC(C)CN(CCCNC(=O)Cn2ncc3c(=O)oc4ccccc4c32)C1 (stereo unspecified)
7. Cc1csc(NC(=O)CSc2nnc(Cn3c(=O)sc4ccccc43)n2-c2ccccc2)n1

Response line:
1. 3.03
2. -0.165
3. -4.48
4. -2.51
5. -2.43
6. -0.3
7. 0.38

Items follow; give growth inhibition for each.
1. CC1(C)CC(=O)C(C=NCCN2CCN(C(=O)CC3CCCC3)CC2)=C(O)C1
2. O=C(Cn1c(=O)n(-c2ccccc2)c(=O)n1CC(=O)N1CCCCC1)N1CCCCC1
3. C=C(C)Cn1c(CCCNC(=O)CC)nc2ccccc21
4. CCCN(CCC)S(=O)(=O)c1cc(Br)cc2c1N(C(=O)CC)CC2

Response line:
1. -24.8
2. -8.76
3. -5.08
4. -8.33

----------
Assay: growth suppression of beta-catenin knockout HCT116, pilot screen, human colon tumor cells (AID 823);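 further: 0% = wells killed by 20 µM Hyamine and 100% = untreated DMSO cell wells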
Details: CellTiter-Glo, 60 h, at 10 µM, hits give low values
Results filed as inconclusive are left out.
I'd be grateful if you could share measured viability for these entries.
Numbers only, in %.

Compound	Recorded Value
O=C(c1ccccc1)c1ccc2nc(N3CCCCC3)c3nncn3c2c1	45.4
CCOc1cc(C2CC(=O)NC(SCC)=C2C#N)ccc1O (stereo not given)	107
CCCCNc1cc(=O)n(C)c(=O)[nH]1	104

Items follow; give viability for each.
1. COc1ccc(Cl)cc1S(=O)(=O)N1CCN=C1C
2. O=C(Cn1c(CN2CCCCC2)nc2ccccc2c1=O)NC1CCCCC1

Response line:
1. 90.8
2. 95.4
